Tested on: Staphylococcus aureus
TEST_SUMMARY: Antimicrobial activity against Staphylococcus aureus ATCC 25923 assessed as growth inhibition after 24 to 48 hr by two-fold serial dilution method
Assay type: functional
VALUE_KIND: MIC (mg/L)

Cc1ccc(S(=O)(=O)Oc2ccc(-c3nc4ccccc4c(=O)n3-c3nccs3)cc2)cc1
6.25

a. Cc1ccc(S(=O)(=O)Oc2ccc(-c3nc4ccccc4c(=O)n3C3=NNC(=O)C3/N=N/c3ccccc3)cc2)cc1 (centres undefined)
b. Cc1ccc(C2CC(c3ccc(-n4c(-c5ccc(OS(=O)(=O)c6ccc(C)cc6)cc5)nc5ccccc5c4=O)cc3)=NN2)cc1 (centres undefined)
c. Cc1ccc(S(=O)(=O)Oc2ccc(C(=O)Nc3ccccc3-c3nc4ccccc4[nH]3)cc2)cc1
d. Cc1ccc(S(=O)(=O)Oc2ccc(-c3nc4ccccc4c(=O)n3-n3c(C)nc4ccccc4c3=O)cc2)cc1
e. Cc1ccc(S(=O)(=O)Oc2ccc(-c3nc4ccccc4c(=O)n3-c3nc4ccccc4s3)cc2)cc1
# input Given 5 compounds, produce a descending ranking by MIC. Would you mind listing the labels in the order requested?
# output d, c, a, e, b

Source listed as ChEMBL document CHEMBL3045082.
